Molecular target: intracellular CK2α (Homo sapiens)
Sequence (P19784 whole entry): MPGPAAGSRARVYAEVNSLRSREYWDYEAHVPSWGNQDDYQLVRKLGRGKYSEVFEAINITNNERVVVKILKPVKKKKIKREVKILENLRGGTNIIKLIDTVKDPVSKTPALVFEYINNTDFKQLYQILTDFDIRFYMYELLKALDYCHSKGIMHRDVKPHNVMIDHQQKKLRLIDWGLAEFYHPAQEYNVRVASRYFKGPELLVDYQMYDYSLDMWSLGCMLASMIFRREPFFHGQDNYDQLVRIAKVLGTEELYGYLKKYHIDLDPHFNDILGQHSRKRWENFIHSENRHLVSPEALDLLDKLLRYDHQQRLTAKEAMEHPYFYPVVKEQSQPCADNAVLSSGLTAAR
Experiment: Cell-based NanoBRET assay for inhibitor binding to intracellular CK2α
Conditions: HCT116 cells transiently transfected with CSNK2A2-NanoLuc fusion vector; Tracer K-5; 2 h; read-out: Assay 3: NanoBRET ™ assay for binding to intracellular CK2α
pIC50: −log10 of the molar value.
Listed below: pIC50 values for each entry.
quantity_measured: pIC50

- O=C(O)c1cc(NCCOCCCCNCc2cc(F)c(OC(F)(F)F)c(F)c2)c2cn[nH]c2c1: < 5.52
- O=C(CCNCc1cccc(OCCO)c1)NCCCNc1cc(-n2cnnc2)cc2[nH]ncc12: < 4.30
- O=C(CCNCc1ccc(C2CC2)c(CO)c1)NCCCNc1cc(-n2cnnc2)cc2[nH]ncc12: < 4.30
- O=C(CCNCc1cccc(CCO)c1)NCCCNc1cc(-n2cnnc2)cc2[nH]ncc12: < 4.30

---

Consider the following log10 of IC50 values measured on CLK2 (Homo sapiens).
Sequence (P49760 whole entry): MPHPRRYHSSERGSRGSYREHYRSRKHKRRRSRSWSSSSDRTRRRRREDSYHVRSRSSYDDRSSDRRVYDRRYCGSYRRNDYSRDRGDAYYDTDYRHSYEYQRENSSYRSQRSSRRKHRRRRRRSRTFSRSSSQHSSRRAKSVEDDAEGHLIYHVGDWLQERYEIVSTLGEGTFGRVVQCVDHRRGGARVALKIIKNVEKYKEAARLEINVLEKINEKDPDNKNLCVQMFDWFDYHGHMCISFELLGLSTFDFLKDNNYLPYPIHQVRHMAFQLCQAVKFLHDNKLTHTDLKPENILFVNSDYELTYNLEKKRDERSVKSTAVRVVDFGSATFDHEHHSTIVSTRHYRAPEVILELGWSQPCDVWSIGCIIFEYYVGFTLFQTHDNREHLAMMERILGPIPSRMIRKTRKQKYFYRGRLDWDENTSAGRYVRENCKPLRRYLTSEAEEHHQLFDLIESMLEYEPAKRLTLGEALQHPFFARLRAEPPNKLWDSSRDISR
quantity_measured: log10 of IC50 (log10 of the value in nM)

- O=C(CCNCc1ccc(OC(F)(F)F)c(Cl)c1)NCCCNc1cc(-n2cnnc2)cc2cn[nH]c12 [Example 83]: 3.04
- OCc1cc(F)cc(CNCCCCOC2CN(c3cc(-c4ccnnc4)cc4[nH]ncc34)C2)c1 [Example 110]: 3.43
- O=C(CCNCc1ccc(OC(F)(F)F)c(Cl)c1)NCCCNc1cc(-c2cn[nH]c(=O)c2)cc2[nH]ncc12 [Example 168]: 1.91
- CN(CCCNc1cc(-n2cnnc2)cc2[nH]ncc12)C(=O)CCNCc1ccc(OC(F)(F)F)c(Cl)c1 [Example 20]: 2.20
- O=C(CCNCc1ccc(OC(F)(F)F)c(Cl)c1)NCCCNc1cc(-c2nnco2)cc2[nH]ncc12 [Example 157]: 3.22
- FC(F)(F)c1ccc2[nH]c(CNCCCCOCCNc3cc(-n4cnnc4)cc4[nH]nnc34)cc2c1 [Example 142]: 3.68
- O=C(CCNCc1ccc(OC(F)(F)F)c(Cl)c1)NCCCNc1cc(-c2cocn2)cc2[nH]ncc12 [Example 175]: 3.28
- O=C(CCNCc1ccc(OC(F)(F)F)c(Cl)c1)NCCCNc1cc(-c2ccncc2)c(F)c2[nH]ncc12 [Example 180]: 2.28
- N#CCc1cc(CNCCCCOCCNc2cc(-n3cnnc3)cc3[nH]nnc23)cc(OC(F)(F)F)c1 [Example 141]: 4.25
- OCc1cc(CNCCCCOC2CN(c3cc(-c4ccnnc4)cc4[nH]ncc34)C2)cc(C(F)(F)F)c1 [Example 112]: 2.80

---

The next entries give measured IC50 for CK2α (Homo sapiens, UniProt P68400).
quantity_measured: IC50 (nM)

- Cc1cc(-c2cc(NCCCNC(=O)CCNCc3ccc(-c4ccccc4)c(Cl)c3)c3cn[nH]c3c2)ccn1: 2.93
- O=C(CCNCc1ccc(-c2ccccc2)c(Cl)c1)NCCCNc1cc(-c2ccnnc2)cc2[nH]ncc12: 0.19
- CN(C)C(=O)c1cc(NCCCNC(=O)CCNCc2ccc(-c3ccccc3)c(Cl)c2)c2cn[nH]c2c1: 182
- O=C(CCNCc1ccc(OC(F)(F)F)c(Cl)c1)NCCCNc1cc(-c2cnns2)cc2[nH]ncc12: 0.47
- c1cc2[nH]c(CNCCCCOC3CN(c4cc(-c5cnoc5)cc5[nH]ncc45)C3)cc2cc1OC1CCC1: 22.6
- N#Cc1cc(NCCOCCCCNCc2cc(F)c(OC(F)(F)F)c(F)c2)c2cn[nH]c2c1: 21
- Fc1cc(CNCCCCOC2CN(c3cc(-c4ccnnc4)cc4[nH]ncc34)C2)ccc1OC(F)(F)F: 20.9
